- Protocol: Half-lives and pharmacokinetic parameters of polypeptides vs HM-1
- Condition: in vivo; read-out: AUC0-∞
Peptide text beside a SMILES is read from it. * marks the point of attachment. Butanoyl(4-maleimido) = O=C1C=CC(=O)N1CCCC(=O)*

Molecule	AUC(0-inf), ng·h/mL
C[C@H](NC(=O)CNC(=O)[C@H](CCCNC(=N)N)NC(=O)CCCN1C(=O)C=CC1=O)C(=O)N[C@@H](CC(=O)O)C(=O)N[C@@H](CCCNC(=N)N)C(=O)N[C@@H](C)C(=O)NCC(=O)NCC(=O)NCC(=O)NCC(=O)N[C@@H](CCCNC(=N)N)C(=O)NCC(=O)N[C@@H](CC(=O)O)C(=O)O [X3] ({Butanoyl(4-maleimido)}-RGADRAGGGGRGD-OH)	33800
